Reference source for all entries: paper PMC4552634

Each entry below carries its reported % Inhibition.
# System: P. falciparum stage V gametocytes
# Parameters: BacTiter-Glo ATP luminescence viability of purified stage V gametocytes in 384-well plates, per cent inhibition versus DMSO
# CONDITION_SET: 48 h, 5 µM; inhibitor
The campaign covered roughly 13,000 compounds. About 3,200 (25%) showed an effect of 50% or more. The list shows a part of the results.
Put your answer as a value accompanied by its unit after it.

COMPOUND	TARGET	% Inhibition
Fc1cccc(COc2ccc(Nc3ncnc4sc(C#C[C@H]5CC[C@H](CNCC(F)(F)F)N5)cc34)cc2Cl)c1	P. falciparum stage V gametocytes	-57.82%

Input: May I ask what % Inhibition has been recorded for Cn1nc(-c2ccc(NC(=O)Nc3cc(C(F)(F)F)ccc3F)c(F)c2)c2cnc(NCCCN3CCOCC3)nc21 ?
Output: 30.03%

Input: How about this compound: CN1CC(c2ccccc2)c2cc(O)c(CN3CCCCC3)cc2CC1Cc1ccccc1 (stereo not shown)
Output: -4.593%

Input: What about this compound? N#Cc1ccc(CNCCCCCCNCc2ccc(C#N)c3ccccc23)c2ccccc12
Output: 40.84%

Input: Also CC1(C)N=C(N)N=C(N)N1OCCCNC(=O)c1ccc(C(=O)NCCCON2C(N)=NC(N)=NC2(C)C)cc1 ?
Output: 3.216%

Input: Now consider CCCc1ccc(S(=O)(=O)NC2CCN(C(=O)Nc3ccc(I)cc3)CC2)cc1 and answer again.
Output: 4.903%

Input: What about COc1ccc(CC2(c3ccc(F)cc3)N=C(N)N(CCCc3ccccc3)C2=O)cc1 (stereo not shown) ?
Output: -20.11%

Input: Try the compound Nc1nc2cccc3ccc4cccc1c4c32
Output: 15.08%

Input: What about this compound? CCCN(CCC)C(=S)N=Nc1c(O)[nH]c2ccccc12
Output: -20.57%

Input: Repeat for the following compound: O=C(N[C@@H](Cc1ccccc1)C(=O)NCc1cccc2ccccc12)c1ccc(O)c(-c2ccc(Cl)c(Cl)c2)c1
Output: 23.34%

Input: Queued: O=C(O)CNCC(O)c1ccccc1 (stereo not shown)
Output: 4.722%

Input: What do we get for FC(F)(F)COc1c(CNCCCCCCNCc2ccc3ccccc3c2OCC(F)(F)F)ccc2ccccc12 ?
Output: 67.85%

Input: Now the same for COc1ccc2c(c1)[nH]c1c(C=Cc3ccccc3)nccc12
Output: -0.575%

Input: One more compound: Cc1ccc(NC(=O)c2ccc(NCCCN3CC(C)CC(C)C3)c([N+](=O)[O-])c2)cc1F (stereo not shown)
Output: -7.765%

Input: Same question, CN1CCN(CCCNc2ncc3c(-c4ccc(NC(=O)Nc5cc(C(F)(F)F)ccc5F)c(F)c4)nn(C)c3n2)CC1 this time
Output: 81.4%

Input: Can you check CCOC(=O)c1ccc(NC(=O)Nc2ccc(-c3ccc(-c4nc5cccc(C)c5[nH]4)s3)cc2)cc1 next?
Output: -10.61%

----------
# Tested on: P. falciparum stage V gametocytes
# Set-up: BacTiter-Glo ATP luminescence viability of purified stage V gametocytes in 384-well plates, per cent inhibition versus DMSO
# CONDITION_SET: 48 h, 5 µM; inhibitor
The campaign covered roughly 13,000 compounds. About 3,200 (25%) showed an effect of 50% or more. The list shows a part of the results.
# % Inhibition annotations
State the value, then name its unit.

Input: Item under review: CCCc1ccc(NC(=O)c2ccc(CN3CCCN(Cc4ccc(OC)cc4)CC3)cc2)cc1 . Reported % Inhibition?
Output: 91.61%
